Target: EP2 subtype of the human PGE2 receptor (Homo sapiens, UniProt P43116)
Sequence (P43116 whole entry): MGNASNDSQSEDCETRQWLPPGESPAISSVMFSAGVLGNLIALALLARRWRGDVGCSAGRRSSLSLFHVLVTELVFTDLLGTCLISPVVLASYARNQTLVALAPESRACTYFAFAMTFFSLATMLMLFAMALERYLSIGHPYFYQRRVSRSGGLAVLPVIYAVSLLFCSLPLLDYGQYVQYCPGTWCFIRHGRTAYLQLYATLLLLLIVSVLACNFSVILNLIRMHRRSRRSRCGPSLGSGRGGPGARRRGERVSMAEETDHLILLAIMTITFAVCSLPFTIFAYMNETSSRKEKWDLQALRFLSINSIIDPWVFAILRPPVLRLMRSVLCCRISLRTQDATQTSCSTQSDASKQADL
Test: cAMP antagonism test on the human EP2 receptor (HTRF cAMP detection)
Assay type: cell-based
Settings: hEP2 receptor, read-out: Antagonism hEP2 IC50
pIC50: −log10 of the molar value.
Observation type: pIC50

Below, 5 compounds whose answers are already recorded.
structure_as_smiles=COCCNC(=O)c1cc2cn(CC3CCN(C(=O)c4ccc(Cl)cc4)CC3)nc2cc1C observation_type=pIC50 readout_number=7.36
structure_as_smiles=Cc1c(C(=O)NCCOCC2CC2)ccc2nn(CC3CN(C(=O)c4ccc(Oc5ccc(F)cc5)cc4)C3)cc12 observation_type=pIC50 readout_number=7.89
structure_as_smiles=Cc1c(C(=O)NCC#N)ccc2nn(CC3CCN(C(=O)c4ccc(Oc5ccc(C(F)(F)F)cc5)cc4)CC3)cc12 observation_type=pIC50 readout_number=7.90
structure_as_smiles=COCCNC(=O)c1ccc2nn(C[C@H]3CCN(C(=O)c4ccc(Oc5ccc(C(F)(F)F)cc5)cc4)C3)cc2c1C observation_type=pIC50 readout_number=8.25
structure_as_smiles=Cc1c(C(=O)NCCOC(C)(C)C)ccc2nn(CC3CCN(C(=O)c4ccc(Oc5ccc(F)cc5)cc4)CC3)cc12 observation_type=pIC50 readout_number=7.92

1: COCCNC(=O)c1ccc2nn(CC3CCN(C(=O)c4ccc(-c5ccc(F)cc5C)cc4)CC3)cc2c1C
2: Cc1ccc(C(=O)N2CCC(Cn3cc4c(C)c(C(=O)NCCOCC5CC5)ccc4n3)CC2)cc1
### Prompt Hey, which is lower on measured pIC50, 1 or 2 ? Pick one; state its label.
### Response 2

Entry source: patent US9062041B2
